Origin of the recorded values: paper PMC7961048

measured on: seven human 14-3-3 isoforms
measurement description: Affinities averaged or compared across the 14-3-3 family (ΔΔGav, KD ratios, affinity maps)
Format: binding
experimental parameters: Figure 4 panel b; 14-3-3ζ
Starred links: 1 amine or outer side, 2 acyl side, 3 side chain; linkers in the order of their positions; H or OH if unused. Non-standard residues stand in square brackets, D forms with d. Residues, ends and D or L forms follow the SMILES beside them. *: point of attachment. X1 = O=C(CCCC[C@@H]1SC[C@@H]2NC(=O)N[C@@H]21)NCCCOCCOCCOCCCN*; pT = C[C@@H](OP(=O)(O)O)[C@H](N)C(=O)O; Suc = O=C(CCC(=O)[*:2])[*:1]
Assignment: determine reported KD ratios, compared to LRRK2 pS910/pS935, 14-3-3ζ for the given molecules.
Reply with the value as a number alone.

KD ratios, compared to LRRK2 pS910/pS935, 14-3-3ζ for CC(C)C[C@H](NC(=O)[C@H](CCC(N)=O)NC(=O)[C@@H](NC(=O)[C@H](CCC(=O)O)NC(=O)[C@H](CCCNC(=N)N)NC(=O)[C@H](CCCNC(=N)N)NC(=O)[C@@H](NC(=O)[C@H](CCCNC(=N)N)NC(=O)[C@H](CO)NC(=O)[C@H](CO)NC(=O)CCC(=O)NCCCOCCOCCOCCCNC(=O)CCCC[C@@H]1SC[C@@H]2NC(=O)N[C@@H]21)[C@@H](C)O)[C@@H](C)OP(=O)(O)O)C(=O)O [pHPV16E6] ? 15333

KD ratios, compared to LRRK2 pS910/pS935, 14-3-3ζ for CC(C)C[C@H](NC(=O)[C@H](C)NC(=O)[C@@H](NC(=O)[C@H](CCC(=O)O)NC(=O)[C@H](CCCNC(=N)N)NC(=O)[C@H](CCCNC(=N)N)NC(=O)[C@H](CCCNC(=N)N)NC(=O)[C@H](CO)NC(=O)[C@H](CCCNC(=N)N)NC(=O)[C@H](CO)NC(=O)CCC(=O)NCCCOCCOCCOCCCNC(=O)CCCC[C@@H]1SC[C@@H]2NC(=O)N[C@@H]21)[C@@H](C)OP(=O)(O)O)C(=O)O [pHPV33E6] ({X1-Suc}-SRSRRRE[pT]AL-OH) ? 566.67

KD ratios, compared to LRRK2 pS910/pS935, 14-3-3ζ for CC(C)C[C@H](NC(=O)[C@H](CCCNC(=N)N)NC(=O)CCC(=O)NCCCOCCOCCOCCCNC(=O)CCCC[C@@H]1SC[C@@H]2NC(=O)N[C@@H]21)C(=O)N[C@@H](CCC(N)=O)C(=O)N[C@@H](CCCNC(=N)N)C(=O)N[C@@H](CCCNC(=N)N)C(=O)N[C@@H](CCCNC(=N)N)C(=O)N[C@@H](CCC(=O)O)C(=O)N[C@H](C(=O)N[C@@H](CCC(N)=O)C(=O)N[C@H](C(=O)O)C(C)C)[C@@H](C)OP(=O)(O)O [pHPV18E6] ? 4666.67

KD ratios, compared to LRRK2 pS910/pS935, 14-3-3ζ for CC(C)[C@H](NC(=O)[C@H](C)NC(=O)[C@@H](NC(=O)[C@H](CCC(=O)O)NC(=O)[C@H](CCCNC(=N)N)NC(=O)[C@H](CCCNC(=N)N)NC(=O)[C@@H](NC(=O)[C@@H]1CCCN1C(=O)[C@H](CCCCN)NC(=O)[C@H](CO)NC(=O)CCC(=O)NCCCOCCOCCOCCCNC(=O)CCCC[C@@H]1SC[C@@H]2NC(=O)N[C@@H]21)[C@@H](C)O)[C@@H](C)OP(=O)(O)O)C(=O)O [pHPV35E6E-1A] ({X1-Suc}-SKPTRRE[pT]AV-OH) ? 3666.67

KD ratios, compared to LRRK2 pS910/pS935, 14-3-3ζ for CC(C)[C@H](NC(=O)[C@H](CCC(=O)O)NC(=O)[C@@H](NC(=O)[C@H](CCC(=O)O)NC(=O)[C@H](CCCNC(=N)N)NC(=O)[C@H](CCCNC(=N)N)NC(=O)[C@H](CCCNC(=N)N)NC(=O)[C@@H]1CCCN1C(=O)[C@H](CCCCN)NC(=O)[C@H](CO)NC(=O)CCC(=O)NCCCOCCOCCOCCCNC(=O)CCCC[C@@H]1SC[C@@H]2NC(=O)N[C@@H]21)[C@@H](C)OP(=O)(O)O)C(=O)O [pHPV35E6T-6R] ({X1-Suc}-SKPRRRE[pT]EV-OH) ? 28958
